Hello, the source for this data is patent US20050196744A1, in case you need it.

- Experimental Target: D79E DAT (Rattus norvegicus, UniProt P23977, D79E)
- Construct: expressed in transfected cells; host or cells: CHO-K1, stably transfected; intact attached monolayers
- Sequence (P23977 whole entry D79E): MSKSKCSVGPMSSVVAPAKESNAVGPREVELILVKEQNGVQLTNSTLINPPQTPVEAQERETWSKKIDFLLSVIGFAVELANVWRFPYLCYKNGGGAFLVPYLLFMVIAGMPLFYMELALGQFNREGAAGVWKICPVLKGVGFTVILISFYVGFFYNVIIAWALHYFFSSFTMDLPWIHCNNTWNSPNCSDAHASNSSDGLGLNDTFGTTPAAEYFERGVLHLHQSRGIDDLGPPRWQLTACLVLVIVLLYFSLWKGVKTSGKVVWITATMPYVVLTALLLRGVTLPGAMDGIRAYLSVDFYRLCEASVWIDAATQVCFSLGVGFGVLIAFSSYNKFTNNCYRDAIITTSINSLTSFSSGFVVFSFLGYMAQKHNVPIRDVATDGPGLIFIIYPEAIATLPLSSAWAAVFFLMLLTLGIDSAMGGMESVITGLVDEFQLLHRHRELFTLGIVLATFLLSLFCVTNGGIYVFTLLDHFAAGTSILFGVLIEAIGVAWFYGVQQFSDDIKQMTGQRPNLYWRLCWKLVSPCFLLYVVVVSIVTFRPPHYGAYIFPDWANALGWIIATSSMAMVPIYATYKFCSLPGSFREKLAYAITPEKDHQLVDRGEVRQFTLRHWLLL
- Protocol Details: [3H]-WIN 35,428 binding / displacement at CHO cells stably expressing D79E DAT
Listed here: items and their measured pKi.
# log scale: pKi equals minus log10 of the concentration in mol/L

OC1(c2ccc(Cl)cc2)c2ccccc2C2=NCCN21 (stereo not drawn) [Mazindol, mazindol]	7.39

Q: Can you share its pKi? I mean this molecule: COC(=O)C(c1ccccc1)C1CCCCN1 (stereo not drawn) [Methylphenidate, methylphenidate]
Ans: 6.78

Q: Can you share its pKi? I mean this molecule: NC[C@H](O)c1ccc(O)c(O)c1 [Norepinephrine]
Ans: 5.26
